- measured-on: Plasma-derived (pd-) human Factor VIII (Homo sapiens)
- Construct: from tissue; host or cells: human blood plasma (FVIII concentrate)
- Sequence (P00451 20-1667 limits assumed): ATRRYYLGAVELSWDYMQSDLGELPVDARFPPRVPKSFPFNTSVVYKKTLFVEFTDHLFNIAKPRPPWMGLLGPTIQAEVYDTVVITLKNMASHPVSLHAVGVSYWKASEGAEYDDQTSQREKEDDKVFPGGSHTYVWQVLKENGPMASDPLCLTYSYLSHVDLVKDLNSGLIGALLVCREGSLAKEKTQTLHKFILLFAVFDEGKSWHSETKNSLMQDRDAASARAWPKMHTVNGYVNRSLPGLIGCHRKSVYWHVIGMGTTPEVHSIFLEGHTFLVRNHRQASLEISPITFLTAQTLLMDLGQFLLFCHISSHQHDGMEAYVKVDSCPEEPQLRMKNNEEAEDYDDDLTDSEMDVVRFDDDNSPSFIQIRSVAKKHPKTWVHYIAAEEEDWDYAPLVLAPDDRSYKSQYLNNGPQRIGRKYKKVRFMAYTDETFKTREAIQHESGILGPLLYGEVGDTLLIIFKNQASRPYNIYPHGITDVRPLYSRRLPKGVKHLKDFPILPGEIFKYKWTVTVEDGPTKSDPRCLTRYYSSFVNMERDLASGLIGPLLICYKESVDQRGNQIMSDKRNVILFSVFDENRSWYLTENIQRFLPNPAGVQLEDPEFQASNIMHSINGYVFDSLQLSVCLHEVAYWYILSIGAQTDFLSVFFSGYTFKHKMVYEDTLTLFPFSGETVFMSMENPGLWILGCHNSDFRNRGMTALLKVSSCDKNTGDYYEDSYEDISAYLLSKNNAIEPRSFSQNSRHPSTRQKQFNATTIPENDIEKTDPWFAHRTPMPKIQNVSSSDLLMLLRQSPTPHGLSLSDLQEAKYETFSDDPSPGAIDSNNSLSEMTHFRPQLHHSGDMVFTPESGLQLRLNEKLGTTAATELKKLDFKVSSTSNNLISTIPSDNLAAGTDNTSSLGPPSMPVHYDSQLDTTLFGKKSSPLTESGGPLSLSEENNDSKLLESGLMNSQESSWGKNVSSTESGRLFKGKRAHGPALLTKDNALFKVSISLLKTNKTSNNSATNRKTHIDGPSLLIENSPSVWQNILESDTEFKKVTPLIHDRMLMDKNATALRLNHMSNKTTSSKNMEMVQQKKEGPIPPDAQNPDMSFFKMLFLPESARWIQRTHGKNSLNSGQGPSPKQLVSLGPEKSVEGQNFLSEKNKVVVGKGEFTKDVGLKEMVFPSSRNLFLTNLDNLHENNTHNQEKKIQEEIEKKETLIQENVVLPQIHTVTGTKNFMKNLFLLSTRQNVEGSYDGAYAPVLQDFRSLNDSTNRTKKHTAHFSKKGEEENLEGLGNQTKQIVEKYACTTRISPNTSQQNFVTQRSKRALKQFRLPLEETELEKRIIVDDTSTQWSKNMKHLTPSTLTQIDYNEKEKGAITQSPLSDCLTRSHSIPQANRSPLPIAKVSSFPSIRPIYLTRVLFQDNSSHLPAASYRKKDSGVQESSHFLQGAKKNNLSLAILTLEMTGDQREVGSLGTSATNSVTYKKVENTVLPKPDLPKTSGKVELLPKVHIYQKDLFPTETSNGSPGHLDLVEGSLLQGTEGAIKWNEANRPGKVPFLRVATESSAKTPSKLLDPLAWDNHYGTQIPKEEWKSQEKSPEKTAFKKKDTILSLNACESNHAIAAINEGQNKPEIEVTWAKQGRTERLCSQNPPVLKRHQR
- Sequence (P00451 1668-2351 limits assumed): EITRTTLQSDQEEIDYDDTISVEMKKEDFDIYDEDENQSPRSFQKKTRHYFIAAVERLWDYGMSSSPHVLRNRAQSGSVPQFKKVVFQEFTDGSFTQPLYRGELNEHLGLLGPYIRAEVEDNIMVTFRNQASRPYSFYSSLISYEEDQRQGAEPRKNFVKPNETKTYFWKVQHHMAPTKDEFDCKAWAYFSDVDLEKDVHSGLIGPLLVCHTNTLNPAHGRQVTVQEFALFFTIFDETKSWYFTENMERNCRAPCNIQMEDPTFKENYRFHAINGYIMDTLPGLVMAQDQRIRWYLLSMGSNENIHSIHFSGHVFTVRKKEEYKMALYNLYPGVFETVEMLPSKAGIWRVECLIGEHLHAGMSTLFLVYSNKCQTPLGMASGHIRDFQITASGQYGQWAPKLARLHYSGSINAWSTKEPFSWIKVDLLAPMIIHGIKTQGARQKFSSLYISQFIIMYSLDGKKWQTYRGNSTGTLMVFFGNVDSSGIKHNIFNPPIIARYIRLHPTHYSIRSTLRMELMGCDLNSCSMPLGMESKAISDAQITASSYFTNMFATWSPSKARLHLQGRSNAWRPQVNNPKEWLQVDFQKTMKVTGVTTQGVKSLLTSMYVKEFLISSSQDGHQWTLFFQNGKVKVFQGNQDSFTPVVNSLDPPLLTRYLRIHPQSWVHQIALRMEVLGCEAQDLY
- run-description: Binding of 125I-labeled pd-FVIII to peptide-coated Toyopearl resin (micro-beads assay)
- test-conditions: peptide immobilized on Toyopearl AF-Epoxy-650M resin; 125I-pd-FVIII, 2 hours room temperature; percent of maximal achievable binding (anti-FVIII Mab 8860-coated resin); mean ± SD of four determinations
Where no end group is shown, it is not given here.

- substance: "Ac-Y-C-S-W-E-Y-NH2 (Ac-YCSWEY-NH2) [S2]"
  unit-abbreviation: "%"
  % Binding pdFVIII: 59.2
- substance: "Y-C-V-W-E-Y (YCVWEY) [S82]"
  unit-abbreviation: "%"
  % Binding pdFVIII: 94.1
- substance: "Y-C-V-W-D-Y (YCVWDY) [S18]"
  unit-abbreviation: "%"
  % Binding pdFVIII: 72.0
- substance: "Ac-E-S-W-E-Y-C (Ac-ESWEYC) [S45]"
  unit-abbreviation: "%"
  % Binding pdFVIII: 36.4
- substance: "Y-C-T-W-D-Y (YCTWDY) [S12]"
  unit-abbreviation: "%"
  % Binding pdFVIII: 74.2
- substance: "E-S-W-E-Y-C (ESWEYC) [S44]"
  unit-abbreviation: "%"
  % Binding pdFVIII: 38.0
- substance: "Y-H-T-W-D-Y-C (YHTWDYC) [S52]"
  unit-abbreviation: "%"
  % Binding pdFVIII: 47.5
- substance: "Ac-H-S-W-E-Y-C (Ac-HSWEYC) [S31]"
  unit-abbreviation: "%"
  % Binding pdFVIII: 48.9
- substance: "Y-C-S-W-E-Y (YCSWEY) [S7]"
  unit-abbreviation: "%"
  % Binding pdFVIII: 64.1
- substance: "Ac-Y-C-T-W-D-Y-NH2 (Ac-YCTWDY-NH2) [S4]"
  unit-abbreviation: "%"
  % Binding pdFVIII: 58.5
- substance: "Y-C-S-W-D-Y (YCSWDY) [S11]"
  unit-abbreviation: "%"
  % Binding pdFVIII: 79.9
- substance: "H-S-W-E-Y-C (HSWEYC) [S29]"
  unit-abbreviation: "%"
  % Binding pdFVIII: 54.4
- substance: "Y-C-T-W-D-Y-NH2 (YCTWDY-NH2) [S3]"
  unit-abbreviation: "%"
  % Binding pdFVIII: 42.3
- substance: "Y-C-A-W-E-Y (YCAWEY) [S81]"
  unit-abbreviation: "%"
  % Binding pdFVIII: 72.1
- substance: "Y-H-V-W-E-Y-C (YHVWEYC) [S76]"
  unit-abbreviation: "%"
  % Binding pdFVIII: 26.6
- substance: "Ac-Y-C-T-W-D-Y (Ac-YCTWDY) [S14]"
  unit-abbreviation: "%"
  % Binding pdFVIII: 82.3
- substance: "Y-C-T-W-E-Y (YCTWEY) [S10]"
  unit-abbreviation: "%"
  % Binding pdFVIII: 80.3
- substance: "Y-C-A-W-D-Y (YCAWDY) [S16]"
  unit-abbreviation: "%"
  % Binding pdFVIII: 72.0
- substance: "Y-H-T-W-E-Y-C (YHTWEYC) [S47]"
  unit-abbreviation: "%"
  % Binding pdFVIII: 47.5
- substance: "Ac-Y-H-S-W-E-Y-C (Ac-YHSWEYC) [S32]"
  unit-abbreviation: "%"
  % Binding pdFVIII: 62.2
- substance: "Y-H-S-W-D-Y-C (YHSWDYC) [S48]"
  unit-abbreviation: "%"
  % Binding pdFVIII: 52.0
- substance: "Ac-Y-C-S-W-E-Y (Ac-YCSWEY) [S9]"
  unit-abbreviation: "%"
  % Binding pdFVIII: 81.6
- substance: "Y-Y-S-W-E-Y-C (YYSWEYC) [S68]"
  unit-abbreviation: "%"
  % Binding pdFVIII: 54.3
- substance: "Y-C-S-W-E-Y-NH2 (YCSWEY-NH2) [S1]"
  unit-abbreviation: "%"
  % Binding pdFVIII: 41.8
